# measurement notes: NCI Yeast Anticancer Drug Screen. Data for the rad50EPP+ strain (AID 151);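 further: 0% = growth of vehicle-treated control cultures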
# assay context: S. cerevisiae rad50 mutant strain, at 33.0 µM
Compounds without any hit were thinned out: in the full panel of roughly 79,000, 15% have a hit. The source made the active and inactive calls. No stated cut-off is given here; in the data, active means growth inhibition above about 70%; inactive means the rest.
Choose the fitting class; nothing outside y = active, n = inactive is accepted.

Example cases with answers are listed next.
> print(dat)
                                   compound  assigned.label
1      Cc1ccc(P(c2ccc(C)cc2)c2ccc(C)cc2)cc1               n
2          Cc1cnc(/C=N\NC(N)=S)c2cccc(N)c12               n
3   OC1C#CCSCC#C/C=C\1 (stereo unspecified)               n
4  CC[C@@]1(OC(=O)CN(C)C)C(=O)OCc2c1cc1n(c2=O)Cc2cc3ccccc3nc2-1               y
5                   O=c1[nH]cc(F)c(=O)[nH]1               y
6  CC(O)CN1C(=O)c2cccc3cc([N+](=O)[O-])cc(c23)C1=O (stereo unspecified)               n
7  CCN(CC)CCSc1c2ccccc2nc2cc(NCC(=O)Nc3ccccc3-c3ccccc3NC(=O)CNc3ccc4c(SCCN(CC)CC)c5ccccc5nc4c3)ccc12               n
8     COc1ccc(C(=O)NCCN(C)C)c2nc3ccccc3cc12               y

Q: Test call for this compound, please: "CN(C)/N=N/c1nc[nH]c1C(N)=O"
A: n

Q: Moving on to CCC(C)/C(C)=N/NC(N)=O (stereo unspecified)
A: n

Q: Moving on to "CN(C)CCNC(=O)c1cccc2nc3c4ccccc4c4ccccc4c3nc12"
A: y

---

Listing of recorded growth inhibition by entry.
# measurement notes: NCI Yeast Anticancer Drug Screen. Data for the mlh1 rad18 strain (AID 175)
# assay context: S. cerevisiae mlh1 rad18 strain growth inhibition; at 50.0 µM; stronger effect = higher value
# Experimental: Growth inhibition of yeast strains with defined genetic alterations is measured as a screen for potential anti-cancer activity. Selected strains with alterations in DNA damage repair or cell cycle control were exposed to compounds and growth inhibition was measured relative to vehicle treated controls. The strain used in this assay is mlh1 rad18
The panel holds about 79,000 compounds, 15% with a hit somewhere; the sample as a whole holds those more often.
Quick reminder: number only, in %, skip the unit.

> print(dat)
                           smiles.structure           quantity  unit.symbol  numeric.readout
1  CCN(CC)c1ccc(N=Nc2cc(S(=O)(=O)O)ccc2O)c(O)c1  growth inhibition            %             19.9
2  O=c1c(Br)cc2c(-c3ccccc3)c3cc(Br)c(O)c(Br)c3oc-2c1Br  growth inhibition            %             83.4
3  COc1ccc2cc(CN3CCC(C4CCN(Cc5ccc6cc(OC)ccc6c5)CC4)CC3)ccc2c1  growth inhibition            %            -19.2
4            O=C(O)/C=C\C(=O)NNc1ccc(Br)cc1  growth inhibition            %             98.3

Q: Query: growth inhibition; subject: "CN1CCN(c2ccc3nc(-c4ccc5nc(-c6ccc(O)cc6)[nH]c5c4)[nH]c3c2)CC1"
A: 99.2

---

# measurement notes: NCI Yeast Anticancer Drug Screen. Data for the rad50EPP+ strain (AID 151);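 further: 0% = growth of vehicle-treated control cultures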
# assay context: S. cerevisiae rad50 mutant strain, at 1.2 µM, stronger effect = higher value
About 79,000 compounds went through this panel and 15% of them were active in at least one assay; those are over-represented in the sample as a whole.
Listing of recorded growth inhibition by entry.
Quick reminder: number only, in %, skip the unit.

Use these answered entries as a reference point.
> print(dat)
                                   compound  unit.symbol  numeric.readout
1  O=C(O)NCC1CCCCC1 (tested in a mixture with another compound)            %                0
2  CCCC(=O)OC(OC(=O)CCC)c1ccc([N+](=O)[O-])o1            %                2
3         N=c1oc2ccccc2cc1-c1nc2ccccc2[nH]1            %               30
4    OC1C#CCSCC#C/C=C\1 (centres undefined)            %              -22
5     [Cl][Pt+2][Cl].[NH-]CC1(C[NH-])CCCCC1            %              -41
6  CCCCCCCCCCCCOC1C(COCCN2CCCC2)OC2OC(C)(C)OC21 (centres undefined)            %               36
7  CC(C)OC(CCC#N)c1ccc(Cl)cc1 (centres undefined)            %               -6
8  CCN(CC)c1ccc(N=Nc2cc(S(=O)(=O)O)ccc2O)c(O)c1            %                8

Q: Query: growth inhibition; subject: "O=c1[nH]cc(F)c(=O)[nH]1"
A: 4

Q: Moving on to "NNc1nnc(-c2ccccc2)nc1Cc1ccccc1"
A: -12

Q: Moving on to CCC(C)C(=O)OCC(=O)c1ccc(-c2ccccc2)cc1 (centres undefined)
A: 1

Q: Moving on to "Oc1ccc(Br)cc1C=Nc1cccc(C(F)(F)F)c1"
A: 0

Q: Moving on to O=C1c2ccccc2C2CCC1c1ccccc12 (centres undefined)
A: 1

Q: Moving on to "CN(NC(=O)/C(=C/C=C/c1ccccc1)NC(=O)c1ccccc1)C1=C(Cl)C(=O)[N+](c2ccccc2)=CC1"
A: 1

Q: Moving on to "COc1ccc(C(=O)OCCc2ccccc2)cc1"
A: 10

Q: Moving on to "O=C(/C(=C/c1ccccc1)CBr)c1ccccc1"
A: 17

Q: Moving on to "Cc1cccc[c]1[Sn]([Cl])([S]/C(C#N)=N/N=C/c1ccc(N(C)C)cc1)[c]1ccccc1C"
A: 0

---

Listing of recorded growth inhibition by entry.
# measurement notes: NCI Yeast Anticancer Drug Screen. Data for the wt1 strain (AID 149);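 further: 0% = growth of vehicle-treated wt1 cultures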
# assay context: S. cerevisiae wt1 strain (SPY 50644) growth inhibition; at 1.2 µM; stronger effect = higher value
# Method: Growth inhibition of yeast strains with defined genetic alterations is measured as a screen for potential anti-cancer activity. Selected strains with alterations in DNA damage repair or cell cycle control were exposed to compounds and growth inhibition was measured relative to vehicle treated controls. The strain used in this assay is wt1
The panel holds about 79,000 compounds, 15% with a hit somewhere; the sample as a whole holds those more often.
Quick reminder: number only, in %, skip the unit.

> print(dat)
                                   molecule           quantity  numeric.readout
1    N#C/C(=C1C=C/C(=N\O)C(Cl)=C\1)c1ccccc1  growth inhibition               -2
2  CCSc1c2ccccc2c(-c2nc(F)nc(F)n2)n1CCc1ccccc1  growth inhibition               -7
3       O=C1c2ccc(O)cc2C(=O)c2c(O)ccc(O)c21  growth inhibition                4
4                  O=c1[nH]c(=O)n(CCCO)cc1F  growth inhibition              -32
5              Cc1ccc2oc(-c3cccc(N)c3)nc2c1  growth inhibition                0
6  [O-]c1c2cc(-[n+]3c(-c4ccccc4)cc(-c4ccccc4)cc3-c3ccccc3)cc1COCCOCCOCCOCCOC2  growth inhibition                3

Q: Query: growth inhibition; subject: "COc1cc(NCCCCCNC(C)C)c2ncccc2c1Cl"
A: -2

Q: Moving on to "CCCCCCCCCCCCCCCCCN"
A: -23

Q: Moving on to c1ccc(C2=NNC3c4ccccc4-c4ccccc4N3C2)cc1 (configuration not stated)
A: -4

Q: Moving on to CCC(C)C(=O)OCC(=O)c1ccc(-c2ccccc2)cc1 (configuration not stated)
A: -1

Q: Moving on to "Cc1cnccc1N=Nc1ccc(N(C)C)cc1"
A: -5

Q: Moving on to "C[Si](C)(C)Cc1ccccc1C(=O)O"
A: 1

---

# measurement notes: NCI Yeast Anticancer Drug Screen. Data for the wt2 strain (AID 169);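 further: 0% = growth of vehicle-treated yeast cultures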
# assay context: S. cerevisiae wt2 strain growth inhibition; at 33.0 µM
About 79,000 compounds went through this panel and 15% of them were active in at least one assay; those are over-represented in the sample as a whole. The source made the active and inactive calls. No stated cut-off is given here; in the data, active means growth inhibition above about 70%; inactive means the rest. Starred links: 1 amine or outer side, 2 acyl side, 3 side chain; linkers in the order of their positions; H or OH if unused. Positions of bridges follow the written chain, without caps; N, C: chain ends. Non-standard residues stand in square brackets, D forms with d. Residues, ends and D or L forms follow the SMILES beside them. Chains are numbered I, II in the order given. Actinocin(9to1) = Cc1c2oc3c(C)ccc(C(=O)[*:1])c3nc-2c(C(=O)[*:2])c(N)c1=O; aThr = C[C@H](O)[C@H](N)C(=O)O; NMeV = CN[C@H](C(=O)O)C(C)C; Sar = CNCC(=O)O
Choose the fitting class; nothing outside true (1) for active, false (0) for inactive is accepted.

Example cases with answers are listed next.
compound	assigned label
N=c1oc2ccccc2cc1-c1nc2ccccc2[nH]1	false (0)
CCC(C)/C(C)=N/NC(N)=O (stereo not drawn)	false (0)

Q: Test call for this compound, please: "CN(C)CCNC(=O)c1cccc2nc3c4ccccc4c4ccccc4c3nc12"
A: true (1)

Q: Moving on to "Oc1ccc(Cc2nccc3cc(O)c(O)cc23)cc1O"
A: false (0)

Q: Moving on to "O=Cn1c2ccccc2c2ccccc21"
A: false (0)

Q: Moving on to "Cc1cnccc1N=Nc1ccc(N(C)C)cc1"
A: false (0)

Q: Moving on to "O=CC(=C(I)I)c1ccccc1"
A: true (1)

Q: Moving on to Cc1c2oc3c(C)ccc(C(=O)N[C@@H]4C(=O)N[C@H](C(C)C)C(=O)N5CCC[C@H]5C(=O)N(C)CC(=O)N(C)[C@@H](C(C)C)C(=O)O[C@H]4C)c3nc-2c(C(=O)N[C@@H]2C(=O)N[C@H](C(C)C)C(=O)N3CCC[C@H]3C(=O)N(C)CC(=O)N(C)[C@@H](C(C)C)C(=O)O[C@H]2C)c(N)c1=O (I: [aThr][dV]P[Sar][NMeV] / II: [aThr][dV]P[Sar][NMeV]; ester I:1-I:C, II:1-II:C; linker I:N-II:N via Actinocin(9to1))
A: true (1)
